This collection of values is drawn from ChEMBL document CHEMBL4513216.

System: Plasmodium berghei
TEST DESCRIPTION: Screen against P. berghei liver stage (PbLuc), transformed with Luciferase, at 10uM
Assay type: functional, HepG2
EXPERIMENTAL CONTEXT: tested at 10 uM
Among all 69,000 compounds or so, about 8,600 (12%) showed an effect of 50% or more. This is one part of a sample in which strong results are shown more often than they occur.
READOUT: INHIBITION (%)
Write the number in % without appending the unit.

COMPOUND | TARGET | UNITS LABEL | INHIBITION
Cc1ccc(CN2CCCC23Cc2ccccc2CNC3=O)cc1 (stereo not given) | Plasmodium berghei | % | 52.4

Recorded INHIBITION for O=S(=O)(C1CC1)N1CCc2ncnc(-c3ccncc3)c2CC1 , please?
12.1

Recorded INHIBITION for OCCOc1cc(F)ccc1NCc1cccc(F)c1F , please?
54.5

Recorded INHIBITION for N#Cc1ccc(F)c(CNc2ccc(F)cc2OCCO)c1 , please?
10.9

Recorded INHIBITION for COCCN1CCC2(CCN(Cc3cccs3)CC2)C1=O , please?
-3.12

Recorded INHIBITION for COCC(C)(C#N)NC(=O)COc1ccccc1Br (stereo not given) , please?
-3.81

Recorded INHIBITION for Cc1nc[nH]c1-c1nccn1-c1cccc(CN2CCCC2)c1 , please?
53

Recorded INHIBITION for CN(C)c1ccc(C(=O)NCc2ccc(N3CCOCC3)cc2)cn1 , please?
12

Recorded INHIBITION for O=C1Nc2ccccc2CC12CCCN2Cc1ccc(F)cc1 (stereo not given) , please?
-38.7

Recorded INHIBITION for CN(C)CCO[C@H]1CN(C(=O)c2ccc[nH]2)[C@@H]2COC[C@H]12 , please?
7.65

Recorded INHIBITION for O=C1Nc2ccccc2CC12CCCN2Cc1cccnc1 (stereo not given) , please?
-2.28

Recorded INHIBITION for CCOCc1nn(C)c2c1CN(CCO)CC2 , please?
27.6

Recorded INHIBITION for C=C(C)CN1CCCC(CNS(C)(=O)=O)C1 (stereo not given) , please?
12

Recorded INHIBITION for CC(C)OCCN(C)C(C)c1cccc(S(N)(=O)=O)c1 (stereo not given) , please?
26.3

Recorded INHIBITION for CNC(=O)C1(CCCc2ccccn2)CN(Cc2nccn2C)C1 , please?
-40.1

Recorded INHIBITION for Cc1nn(C)c2ncnc(N3CCC(O)(CN4CCCC4)CC3)c12 , please?
30

Recorded INHIBITION for COc1ccccc1-c1noc(CNc2ccc(F)cc2OCCO)n1 , please?
13.7

Recorded INHIBITION for Cc1ccsc1-c1nccn1C1CC(=O)N(C(C)C)C1 (stereo not given) , please?
35.8

Recorded INHIBITION for Cc1nn(CCC(=O)N2CCCC(OCc3cccnc3)C2)c(C)c1C (stereo not given) , please?
41.2

Recorded INHIBITION for CC(C)CCN1CCCC12Cc1ccccc1CNC2=O (stereo not given) , please?
14.3

Recorded INHIBITION for Cc1oc(C(=O)Nc2cccc(Cl)c2C)cc1S(N)(=O)=O , please?
-74.6

Recorded INHIBITION for CC1CN(CC(=O)NCc2ccccn2)CCN1Cc1nccn1C (stereo not given) , please?
-20.19

Recorded INHIBITION for O=C1Nc2ccccc2CC12CCCN2Cc1ccccn1 (stereo not given) , please?
27.5

Recorded INHIBITION for Cc1nn(-c2ccccc2)nc1C(=O)NCC(c1ccco1)N(C)C (stereo not given) , please?
8.48

Recorded INHIBITION for Cc1oc(C(=O)Nc2ccccc2F)cc1S(N)(=O)=O , please?
17.5
